Numbers sourced from patent US20260184675A1.

Assignment: determine reported Number of hatched larvae 5 days after insecticide delivery, Replicate 3 for the given compounds.
test system: eggs of Aleyrodidae; test: Effect on hatching of eggs of Aleyrodidae, leaf disc method; assay type: in vivo; details: Aleyrodidae eggs, 10 ppm, leaf disc, replicate 3
When you answer, write just the number.

Let me know recorded Number of hatched larvae 5 days after insecticide delivery, Replicate 3 for CCC(COc1ccc(Cl)cc1Cl)OS(=O)OCCF (centres unmarked) , thanks.
0

Assign Number of hatched larvae 5 days after insecticide delivery, Replicate 3 to the following record: CC[C@H](COS(=O)OCCF)Oc1ccc(Cl)cc1Cl (stereo partly drawn) [19′-(R,S)]
10

Report measured Number of hatched larvae 5 days after insecticide delivery, Replicate 3; entry is CCC(COS(=O)OCCF)Oc1ccc(Cl)cc1Cl [19′-(R,R)]
0

Using the record for CC(C)(COS(=O)OCCF)Oc1ccc(Cl)cc1Cl (centres unmarked) [Compound 10′] , state its measured Number of hatched larvae 5 days after insecticide delivery, Replicate 3.
1

// Input: CC(C)(COS(=O)OCCF)Oc1ccc(Cl)cc1Cl (centres unmarked) [R-10′] . Output its Number of hatched larvae 5 days after insecticide delivery, Replicate 3 only.
13

Using the record for CC(C)(COc1ccc(Cl)cc1Cl)OS(=O)OCCF (centres unmarked) [Compound R-10] , state its measured Number of hatched larvae 5 days after insecticide delivery, Replicate 3.
12

Look up and state reported Number of hatched larvae 5 days after insecticide delivery, Replicate 3 for CC(C)(COS(=O)OCCF)Oc1ccc(Cl)cc1Cl (centres unmarked) [S-10′]
0

Identify the reported Number of hatched larvae 5 days after insecticide delivery, Replicate 3 for the following entry. CC(C)(COc1ccc(Cl)cc1Cl)OS(=O)OCCF (centres unmarked) [Compound 10]
2

Note Number of hatched larvae 5 days after insecticide delivery, Replicate 3 for the compound shown: CCC(COS(=O)OCCF)Oc1ccc(Cl)cc1Cl (centres unmarked) [Compound 19′]
0

Look up and state reported Number of hatched larvae 5 days after insecticide delivery, Replicate 3 for CC(COc1ccc(Cl)cc1Cl)OS(=O)OCCF (centres unmarked)
1

Complete the entry with Number of hatched larvae 5 days after insecticide delivery, Replicate 3 for CC[C@@H](COc1ccc(Cl)cc1Cl)OS(=O)OCCF (stereo partly drawn) [19-(S,R)]
0

* * *

Field: Number of hatched larvae 5 days after insecticide delivery, Replicate 3. Provide a value for each of the molecules that follow.
system: eggs of Aleyrodidae; experiment: Effect on hatching of eggs of Aleyrodidae, leaf disc method; assay type: in vivo; conditions: Aleyrodidae eggs, 10 ppm, leaf disc, replicate 3
No unit in the answer, please; the number alone is enough.

Recall and state the measured Number of hatched larvae 5 days after insecticide delivery, Replicate 3 for CC[C@H](COc1ccc(Cl)cc1Cl)OS(=O)OCCF (stereo partly drawn) [19-(R,S)] .
0

Please look at this molecule and report its Number of hatched larvae 5 days after insecticide delivery, Replicate 3: CC(COS(=O)OCCF)Oc1ccc(Cl)cc1Cl (stereo not drawn)
0

Consider the molecule CC(C)(COc1ccc(Cl)cc1Cl)OS(=O)OCCF (stereo not drawn) [Compound S-10] and give its recorded Number of hatched larvae 5 days after insecticide delivery, Replicate 3.
0

* * *

system: eggs of Harmonia axyridis; experiment: Effect on hatching of eggs of Harmonia axyridis, egg card immersion; format: in vivo; details: Harmonia axyridis egg cards, 100 ppm, immersed 30 seconds, replicate 2
metric: Number of hatched larvae 4 days after insecticide delivery, Replicate 2
Just the number.

Note Number of hatched larvae 4 days after insecticide delivery, Replicate 2 for the compound shown: CC(C)(COS(=O)OCCF)Oc1ccc(Cl)cc1Cl (stereo not shown) [R-10′]
14

Given the compound CC(C)(COS(=O)OCCF)Oc1ccc(Cl)cc1Cl (stereo not shown) [S-10′] , write its reported Number of hatched larvae 4 days after insecticide delivery, Replicate 2.
0

Indicate the recorded Number of hatched larvae 4 days after insecticide delivery, Replicate 2 value for this compound: CCC(COc1ccc(Cl)cc1Cl)OS(=O)OCCF (stereo not shown)
5

Given the compound CCC(COS(=O)OCCF)Oc1ccc(Cl)cc1Cl (stereo not shown) , write its reported Number of hatched larvae 4 days after insecticide delivery, Replicate 2.
5

Identify Number of hatched larvae 4 days after insecticide delivery, Replicate 2 associated with the compound CC(COc1ccc(Cl)cc1Cl)OS(=O)OCCF (stereo not shown)
4

Consider the compound CC(C)(COc1ccc(Cl)cc1Cl)OS(=O)OCCF (stereo not shown) [Compound S-10] . State its measured Number of hatched larvae 4 days after insecticide delivery, Replicate 2.
0

Identify the reported Number of hatched larvae 4 days after insecticide delivery, Replicate 2 for the following entry. CC[C@H](COc1ccc(Cl)cc1Cl)OS(=O)OCCF (stereo partly drawn) [19-(R,S)]
0

Identify measured Number of hatched larvae 4 days after insecticide delivery, Replicate 2 associated with CC(COS(=O)OCCF)Oc1ccc(Cl)cc1Cl (stereo not shown)
6

Quick one: give measured Number of hatched larvae 4 days after insecticide delivery, Replicate 2 for CC[C@H](COS(=O)OCCF)Oc1ccc(Cl)cc1Cl (stereo partly drawn) [19′-(R,S)]
10

Return reported Number of hatched larvae 4 days after insecticide delivery, Replicate 2. Input compound: CC(C)(COS(=O)OCCF)Oc1ccc(Cl)cc1Cl (stereo not shown) [Compound 10′]
5

* * *

test system: pest eggs of Tetranychus cinnabarinus; assay: Effect on hatching of pest eggs of Tetranychus cinnabarinus, leaf disc method; assay type: in vivo; conditions: 1 mg/L, Replicate 1
Answer each item with its documented Number of hatched larvae 7 days after insecticide delivery.
Respond using a number only.

Give Number of hatched larvae 7 days after insecticide delivery for C[C@H](COS(=O)OCCF)Oc1ccc(Cl)cc1Cl (stereo partly drawn) [1-(R,S)]
61

Give recorded Number of hatched larvae 7 days after insecticide delivery. CC(COc1ccc(Cl)cc1Cl)OS(=O)OCCF [1′-(S,R)]
69

Consider the compound CC(COc1ccc(Cl)cc1Cl)OS(=O)OCCF [1′-(S,S)] and give its recorded Number of hatched larvae 7 days after insecticide delivery.
46

Let me know recorded Number of hatched larvae 7 days after insecticide delivery for CC[C@@H](COS(=O)OCCF)Oc1ccc(Cl)cc1Cl (stereo partly drawn) [19′-(S,R)] , thanks.
68

Read the entry C[C@H](COS(=O)OCCF)Oc1ccc(Cl)cc1Cl (stereo partly drawn) [1-(R,R)] and write its reported Number of hatched larvae 7 days after insecticide delivery.
56

Please give measured Number of hatched larvae 7 days after insecticide delivery of the following entry: CC(COc1ccc(Cl)cc1Cl)OS(=O)OCCF (centres unmarked) [Compound 1′]
47

Annotate the compound CC(C)(COS(=O)OCCF)Oc1ccc(Cl)cc1Cl (centres unmarked) [R-10′] with its measured Number of hatched larvae 7 days after insecticide delivery.
54

Tell me measured Number of hatched larvae 7 days after insecticide delivery for CC(COS(=O)OCCF)Oc1ccc(Cl)cc1Cl (centres unmarked) please.
53

Give me measured Number of hatched larvae 7 days after insecticide delivery, please, for this compound: CCC(COS(=O)OCCF)Oc1ccc(Cl)cc1Cl [19′-(R,R)]
57

State, in one line, measured Number of hatched larvae 7 days after insecticide delivery of CC[C@H](COS(=O)OCCF)Oc1ccc(Cl)cc1Cl (stereo partly drawn) [19′-(R,S)]
47

Check the records and state Number of hatched larvae 7 days after insecticide delivery for CCC(COc1ccc(Cl)cc1Cl)OS(=O)OCCF [19-(S,S)]
50

* * *

test system: pest eggs of Tetranychus cinnabarinus; assay: Effect on hatching of pest eggs of Tetranychus cinnabarinus, leaf disc method; type: in vivo; conditions: 0.25 mg/L, 7 days after insecticide delivery, Replicate 2
metric: Hatching rate (%)
The reply should consist of the numeric value with the unit placed after it.

Dear colleague, please send me the reported Hatching rate (%) for CC(C)(COS(=O)OCCF)Oc1ccc(Cl)cc1Cl (stereo not shown) [S-10′] when you can.
43.77%

Output measured Hatching rate (%) for this item: CC(C)(COc1ccc(Cl)cc1Cl)OS(=O)OCCF (stereo not shown) [Compound R-10]
74.03%

Determine from records and report Hatching rate (%) for CCC(COc1ccc(Cl)cc1Cl)OS(=O)OCCF [19-(S,S)]
69.86%

# return recorded Hatching rate (%) for input CCC(COc1ccc(Cl)cc1Cl)OS(=O)OCCF [19-(R,R)]
76.00%

// fetch Hatching rate (%) given entry CC[C@@H](COc1ccc(Cl)cc1Cl)OS(=O)OCCF (stereo partly drawn) [19-(S,R)]
45.61%

# return recorded Hatching rate (%) for input CC(COc1ccc(Cl)cc1Cl)OS(=O)OCCF [1′-(R,S)]
29.17%

Report Hatching rate (%) for CC(C)(COS(=O)OCCF)Oc1ccc(Cl)cc1Cl (stereo not shown) [R-10′]
76.79%

Give Hatching rate (%) for CC(COc1ccc(Cl)cc1Cl)OS(=O)OCCF [1′-(S,R)]
44.83%

Complete the entry with Hatching rate (%) for CC(COS(=O)OCCF)Oc1ccc(Cl)cc1Cl (stereo not shown)
67.92%

Answer with reported Hatching rate (%) of C[C@H](COS(=O)OCCF)Oc1ccc(Cl)cc1Cl (stereo partly drawn) [1-(R,S)]
76.47%

Provide one value: measured Hatching rate (%) of CC[C@H](COc1ccc(Cl)cc1Cl)OS(=O)OCCF (stereo partly drawn) [19-(R,S)]
41.38%

Query Hatching rate (%) for CC(C)(COc1ccc(Cl)cc1Cl)OS(=O)OCCF (stereo not shown) [Compound S-10]
41.79%

Return Hatching rate (%) (reported value) for this compound: CC(COc1ccc(Cl)cc1Cl)OS(=O)OCCF (stereo not shown) [Compound 1′]
70.83%
